Procedure details: protease stability score; higher = more stable; yeast display proteolysis, trypsin and chymotrypsin;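 further: log10 excess protease needed over predicted unfolded state with 0 meaning unfolded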
protease stability score vs 0.6: at or above is T, below is F.

{"columns": ["Chain", "Label value"],
 "data": [
  ["DRELNQLFRDYVHALKTGDEDELRKQADPNVRIEIGDKEWHGMEKIATEQKKRHDEIRVQIDVKEVSVHNGRVEAELEVVDQQNGRPEKRKVTVTAEYENGKLQHQRYQSDG", "F"],
  ["DEEELKTIIRDMQSNDEERLANLFDEDAKVDVGDDVLHGREDVTKFFRKVNKRIDHFEIKTYDVRGEEVEVTVEAVVNGQRIKFVWVLTIKNGKAKSAKLSVTDKKQKRILEKNMD", "T"],
  ["DHEAREIVEEYLKAIERNNPKKAQELVDPNVHFHYGDKRLDGREDLNEKIHRETKHQRVDIKSVSIDVQGDKVDVKVDVVDVHNGQPERYTFEVTYTFKNGQIQNADQKESG", "T"],
  ["DDREMKKFAEQYARNLTRNDEDSLKDLFDENAEVTIGDKQVRGQEKIKSLLHQLHQQVDHFDLRRVDAQGDDIKIVVLWNHNGKHLNVTISMRVHNGRIKSATDHVRSEDDERKFKR", "F"],
  ["DEDEDDKMRKLIKTNNPQEIAQNADPNVEATVGNKTYHGREQMQQIAEIFRTMADHVHVDRVDADNGHVSAHRVITVNGHKVNVKVRFNISNGRIKRQEIDVTSEQDHRELEKNYN", "F"],
  ["DEKQDKHYKKMMDEGDWKHFANNADPNARVDIGDKEYHGREQVNKALRRISEQADDFRVHDVQVENGRVRADVEFHVNGRSLKVDIRAVLHNGEVTHFHMSVTSEEVKQMLREIFD", "F"],
  ["DEEEVNKALERIRQVLEDGNPDENMKLMDKDVRVEIGDKTWHGRDEAHKAMRELNENVDHFQFDRLHHEGDRAKIDVHLEDNGKKDRVTFEFKIENGRIQHARVQTS", "F"],
  ["EDENTRKFVQYLKILKDGNEQELKKDMDPNAHIKVGDKTLSGMDKITDDVRRKLEEMTVDFTTVSAKAENGRLDVNMSLNNEVNGRPRSDDVTIEVRIHNGKFDHIIYHMDPNRLKEVER", "F"],
  ["DSEEAKKADEVVQTNDEDRLRDLLDEDARIIIGEFTFHGRHKAEEAVKRFQDAVDHIEIEDYDVQGNEITVVFTVSFNGKKMRFKASFHLRNGRLKHMSMTFTDPDQEREMSNLLR", "F"],
  ["DEEALNNLHEFFKHWNTGNPHELMKLADPNVRFQVGEKVIHGREEFMKDIKRIREELRQEIDVRDVKVQGEKLIVKATRSEERNGKPSSDTIHMTARVHNGRIKSVDIKSTS", "F"],
  ["DERAREIVTRYFTALERGDPDKARKLADKDVRISVGDTQINGHDQMARTIDKQKKHMRIRFEDVKIHVNNGRADVKFHAVFEHNGKPERKNRTIIFNVHDGRIKEIQAQDDE", "F"],
  ["DEDANRKAREYAHAREHGDPRHAREYADPNAEFTVGDKSFHGMQEDVERMERERKEMRVEIKDVQVSAHDGRLTLDLRFVKDNNGQPREVRQNVQFNIENGRATEIDVQETK", "F"],
  ["DEHKEASEYIEQAEENMRDNNFRRMMQNADENVKLKYGDKELEGREQVESWANTVQSRADHFEIRVESMTVTGDHISIVLSHIVRHDGRRVKQKIIIIFKVHNGRARIEHIEFK", "F"],
  ["DKEEAKKILDKAVKAVENGNLEELKQMGKEGVEYELIDKKAHGPEVVHKVMEKLQRHGAELEFKRVQVEGDTVHTVVDYRVGDTEMRATAEATVQGGRIDKVRIEMSEEAQKTIKHG", "F"],
  ["DDKNRELLTEVLKARETGDPDRIHELLDPNVKVKVGNKTLRGRNEIAKWWKRQTDEMRIEESITHIDVHNGKARMEASARVEINGRPVTYTFIMKAVIHNGRVKEINIHIPEEKMQEVTQ", "T"],
  ["DEKLEKLVDEFIEAEHTNNPEELKKLIDPNARFRIGDKDVHGREEWNEDMKRINDELRIEVHIKHVDARGDHVDIEMEFTFNVNGRPVNQTAKQQIKFENGRMKRVVNNVSEDQVEQLHR", "F"],
  ["DEKEQKENAKKMADAIERGDPDKLSELMDENAKVTVGDKTIHGRRQAHEWLKEFRDQADHVEIKEFTVNGNRVIIHVKVRHNGSESERVMTVSWHNGKVKSASFRSN", "T"],
  ["DEDKRAREAAETAIQALRTGDPDKMVKLMDPNARVRVGDKTVTGHEEIRRWMQTIQDQIDHADITVESLTVNNGRAELIFVANFDRNGRTERTRYNLEIDVRGDKVQAHQMDHG", "T"],
  ["DDEVAKTIVKNWKTGDPDRLNEMFDPNARIRIGNQDVHGHEEVKKMLHKFFTAIDSIDIKRVSVHNGRIDIDVRAHFNGRSFRFVLHIVVEDGRVKHMEMKVTDPDSQRELEKHQK", "T"],
  ["DEEDVRRVAKQAKEYVQKGNKEKLMDLGKEGVDYRVLDHKAKGPEAIKTMQDYLERKGARVEVKKLEVKGDQVRTEVHYKQGDTTATAEVHATVKGGKIDKVKVDLSDRAKEILKHG", "F"],
  ["DDEKVQKAAHNLIQAIKSGDEDRMRKLMDPNVRVVVGDKEVSGSDDAARFLRELRERVDHVEVKRVEAHNGRIKIDAVNRHNGHDHRFVLEAEVHNGTVKQIRIKEQ", "T"]
]}

###

Listed below: protease stability score values for each entry.
Procedure details: protease stability score; higher = more stable; yeast display proteolysis, trypsin and chymotrypsin;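 further: log10 excess protease needed over predicted unfolded state with 0 meaning unfolded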
Quantity name: protease stability score

{"columns": ["Chain", "Quantity name", "Recorded measurement"],
 "data": [
  ["DEEKIKQLLQKMIQYYVSGNKDHLKQLGKDDVQLHAADQTYHGLDQLLKVAEQFKKYGVKLEVKDVKVDGNTIHADVEVTMGGTQWTFKVTAEADGGKVDKVQFDVSEEAKKRIQKG", "protease stability score", 0.959],
  ["DEDREKRFAKHVADVLRTGDSDRLQELADENVRMRIGDKTYKGRENFTKALEELRNRVDHIDIKSVKVHNGRISIDFVMRHNGREQTAVLIMHIHNGRIESQEVHSK", "protease stability score", 0.618],
  ["DEEREEQARKLLRAEEQGDPDRAKQMMDPNARVQVGNKRVHGRSEIATQLEKRKRRARYEIKHVTIRARGNRVDVKINVQVVVNGRPHHFTYIMHLTFQGDKAKNATVRIDEDTLRQVDS", "protease stability score", 0.171]
]}

###

Form field: protease stability score (one value per entry).
Procedure details: protease stability score; higher = more stable; yeast display proteolysis, trypsin and chymotrypsin;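 further: log10 excess protease needed over predicted unfolded state with 0 meaning unfolded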

{"columns": ["Chain", "protease stability score"],
 "data": [
  ["DEEDYKSIATEFVQALREGDEQHFRRLLDEEVNNDVGDKRIRGREKVETELRKILHKVDHVDVKDYKVHNGHVTVDMRFDDNGKEERWTMQAQFHNGRLKSIWMRTR", 1.08],
  ["DDDEMHKLVEHAIKAWETGDHKKAMDLIDPNAKVDVGDREIHGREEFSHHVREINKKVDRVDVQDYKVRGNKAQVRMQFNVNGQTVVVNLVFVMSNGRLSRVQIDVTDPDKFRSAQS", 0.138],
  ["DDSAMRQIHDLLRHIETGNEKEVSKQMDPNARLQIGDQVYHGNEQARRAWKRERDEIRISIKRVRMDAKGDKVFIEMDLVREKDGTPDRLTMRITVQQHDGRVKDLVQEERR", 0.07],
  ["DEERNKEMKEVLETNDFKDLANQADENAKAQIGDKEYHGREEVRDAMKSLQERIDSVEVRDIHVQGDKFSIEAVMDVDGDKVDVVIEMRVHNGNIKFVRINARNESVKEKVEQVVS", 1.79],
  ["DEERVERLARTAFKAAVNGDEDKLRKMLKPDVKYKYIDEEREGEDVAKFVVKLMKKIGAEVRLKRLEVRGDTVKADFDYKQGDKTVRTKAEVKYKGDKVDEARVELTDEVKKVLTRG", 0.125],
  ["DEDRRAKELAERLDEALRTGDEERLQRLFDKDVRFDIGDKTIHGRTEAARQMVTHANRADHVHMKVTDLKRHGSRIVVVVHFRQNINGKKDSRDVKIEVKLEGDRIKVVRATYR", 0.888]
]}

###

Each entry below carries its reported protease stability score.
Procedure details: protease stability score; higher = more stable; yeast display proteolysis, trypsin and chymotrypsin;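 further: log10 excess protease needed over predicted unfolded state with 0 meaning unfolded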
Quantity name: protease stability score

{"columns": ["Chain", "Quantity name", "Recorded measurement"],
 "data": [
  ["DENKKAEKVARDYIKNAQTNNSESLKKLADPNVEVVIGDTTYTGTKDFVKFVQEIVRQADHISLNVRSVEVQGDKADVVAEVRVDFNGNQRRQDIRFHAQLQGDKVKLKMIQYK", "protease stability score", 1.06],
  ["DEDNEKELQREIVRVLKHNDWERFTQLIDEDVRLEYGDQRYHGREQVSKHFTDLAQEVDSVEVTSVKAHNGKINITAILNHNGTNHRYNIRFEFRNGRLKVVRYDHT", "protease stability score", 1.85],
  ["DEKDKATKMMETIKQAWDRNNPQQVASQFDKDAHIRVGDKMIHGHEQLKEFVQDVLDTYDHIKLTVTSVKQHNGRVVIVVQVHLEHNGRNDTRHYVVIIEVDNGHIRIKTMVDK", "protease stability score", 1.16],
  ["DEDANRRLRRLIEQIHENDPDKIDEMFDPNARVDIGDHTVHGREQLRQTVKREAKEIRIRIERLDVRVKGDKATVEMHFVRKNNGEPRSNRVVVTARIRNGKIESMKQTEDG", "protease stability score", 0.763],
  ["DENAERVLREIVKALEQGDPDRWKQNVDPNVKFRVGDKDVHGREEIVKTLSSLHDQIRFHVKFEHMDNQGDKIRADARVHQNVDGRPLSSSVVVRLTVHNGRVQEMRMNMDEHYVRDEQK", "protease stability score", 0.068],
  ["DDHAIRLLHEMIKAERTNDPDKLKEQMDPNAKIKYGDKTVHGRNDAVRYLEETVEHARVSIQVKSIKDQGDQAIADATITVNINGRPQQFKITIVAKFHNGRIKEVEIRVSEEQERQMES", "protease stability score", 0.785],
  ["DHDAVRQARELYKVWQTGDPDKVRNMLDPNVRFRIGDKEIRGRESFAEELITQIKQSHVEVRHYSANANGNNVKARANVVIHVNGRPHEFSFIFRARVENGKFKQISVQVDDDLLRKLES", "protease stability score", 0.548],
  ["DDDDNKTAQDRMRTNDFTTLARHAPEDAHAQIGDTTVTGRRKLEEIVVKFREQVDHMEIKDIRTSGEKVFIDLHATFDGHTVRLVIEVEVKNGRLQKLFFRVTDPERAKEIVEQLD", "protease stability score", 0.362],
  ["DEELADKMRKWWQNVHQGNHDHIREMVDPNVKFQVGNKQYHGRETMSSLVVELKREITFRVDRMSASVHNGRLHVRLDIKYEVNGQPDRENLRIEANIHNGKIKSLSVQMDNEKLKKLHK", "protease stability score", 1.03],
  ["DEEEVQKILKTMNELLKHNDFDSLARQADPNAEFHVGDKRVHGREQVQTMLQDLRERIDHVEIRSMTAQGDKFKLDFLENVNGRRTRVTAHADVHNGRIKSVEYRTS", "protease stability score", -0.619],
  ["DDRDLETMVRLWRDNDSKRLKQNVDPNARIRYGNFEVHGREQVQKWIKLFRDRVDHNDIKRYQTTPGRLVMQLSATFNGVKVKFTMIVEFHNGNIRLIQINFTDEENMKHLVREVE", "protease stability score", 1.55],
  ["DEKELQKVLQKVMKLFQNGNIEELQKVVKDDVQLRYADKEYHGPDAVKTVVKRYRDLGAKVEYDELHVEGDKATAKVRADYGGTTVRMKVTYKVTGQKVDRMQVKYDEKAQKQIKHG", "protease stability score", -0.142],
  ["EEELLERIKTFVKVYEHGDFKRLHRNLDKDVRVVVGDKHVRGREEAVRDMSEELRNMDQKIDFKTMHITNGKANLDFHFQNTVNGQPRRDRAHLIIRLHNGKFQEIKIQFSEEQERRQKG", "protease stability score", 0.608],
  ["DDHEEASELIRDLNEAWKEGDPDRASKNFDPNARIEVGDRTFRGQEQVKRMADELKEKYDEFTVDIKRLSLHNGSITVNARVVYHNNGRRHDRTYVVILHKHNGRIKIKNMHEQ", "protease stability score", 0.331],
  ["DDHVLREVMKSWKDNDWKTLQDQVDPNARMKVGDNKVSGREQIEDLLQHLQDRIDHVEIKSMQHQGDKANFRFQFVVNGQRVDVVARVKAHNGKIQEWQVEVRNDELKEQLERAQK", "protease stability score", 0.628],
  ["DEHFETVARLMLHALEDNNPEVLRENLDPNARVQVGDQDLTGRDTVVKVAHRLLTEIRIHIQIDSVRNQGDTVEFDAKFRANVNGRPYSVKVVIVYVVRNGRAVHIQVRMDPDFLRKLRK", "protease stability score", 0.938],
  ["DETEKAKRFFDEWLKALHRGDPDEVKKLADPNVRFEVGDKEIHGRSNMAKHVTDLRKRADSFSASIDSIDIKGEKVVIDAKLTYNHNGRKTHNKVEFDAKVHNGKIKLKEIIVR", "protease stability score", -0.257],
  ["DDQHHAERFVEHVLKQLQTGNENDISKMVDENARVEYGDEEITGRESVVKHLIKEARRVDSIDLKVKSVSKEGDKINVTLVAVLDVNGRKDKRQFRVVMAKQGDKTNIISQHEK", "protease stability score", 0.965],
  ["DEDANENIRKQLEWEEKGNPQQAKKQADPNAQFNIGDHTFNGMDEYMHWVKRELTHLRIEIKDVKFDVQGEKIEIDVRFVVDENGRPKEDRQDFDVTMHNGHIHNINVDKIS", "protease stability score", -0.21],
  ["DPTELLKYAEKLLEALMKGDSELATKMGKPDVEVQTGDQKYKGQDDLRKVVKKIKDYGVENKIDETEKDGGQVKVKIVARIGDREYTFTWVAEAENGKVRKVQLDIPEDLEKDLKHG", "protease stability score", 0.739],
  ["DEKALRVAEEAIKAVQTGDPKKFATMADENARVRIGDKEVKGRENQVQLMKDWKHHMRWEQDVKSVTANGDKVEVKFEQVSETNGKPDHDTWNVHFTAQNGEVKSMTMTSNK", "protease stability score", -0.504],
  ["DEKRLREIATRIVDALKTNNPEDFQKQLDEDAEVSIGDKTVRGQKQIVKMMDEFNSRVDEIDFKSYTAEGNQVVVNAVFNHNGRQQHLHFVFVFHNGKAKTVKAESS", "protease stability score", 1.12]
]}

Sourced from the NTF2 design screens of Basanta et al. (2020)
